experimental details: Stability in rat plasma
Format: ADME, cell-free
test settings: read-out: Stability
outcome measure: half-life

Report half-life for O=C(NC[C@@H](Cc1ccccc1)N1CCC(O)(C(F)(F)F)CC1)C1(c2ccc(Cl)cc2)CCCC1 please.
> 6 h

* * *

experimental details: Drug uptake in Sprague-Dawley rat skin dermal layer at 0.68 mg applied topically measured after 24 hrs
Format: ADME, tissue-based, Dermis
test settings: topical or ocular, read-out: Drug uptake
outcome measure: concentration at 24 h (ng/g)
Field: numeric (ng/g). Do not append units.

>>> quantitative_result("O=C(NC[C@@H](Cc1ccccc1)N1CCC(O)(C(F)(F)F)CC1)C1(c2ccc(Cl)cc2)CCCC1")
640000

Please turn your attention to the following entry.
Report concentration at 24 h for O[C@]12CCCC[C@@H]1CCC[C@H]2Nc1ccc(F)cc1 please.
232000

* * *

experimental details: Stability in dog plasma
Assay type: ADME, cell-free, Canis lupus familiaris
test settings: read-out: Stability
outcome measure: half-life

Report half-life for O=C(NC[C@@H](Cc1ccccc1)N1CCC(O)(C(F)(F)F)CC1)C1(c2ccc(Cl)cc2)CCCC1 please.
> 6 h

* * *

experimental details: Fraction unbound in rat plasma
Format: ADME, cell-free
outcome measure: fraction unbound
Lab note: jot the number down without any unit.

Report fraction unbound for O=C(NC[C@@H](Cc1ccccc1)N1CCC(O)(C(F)(F)F)CC1)C1(c2ccc(Cl)cc2)CCCC1 please.
0.00057

* * *

experimental details: Thermodynamic solubility of the compound
Assay type: physicochemical
test settings: read-out: Therm_solubility
outcome measure: solubility thermodynamic (µg/mL)
Field: numeric (µg/mL). Do not append units.

Report solubility thermodynamic for O=C(NC[C@@H](Cc1ccccc1)N1CCC(O)(C(F)(F)F)CC1)C1(c2ccc(Cl)cc2)CCCC1 please.
0.6

* * *

experimental details: Stability in human liver microsomes assessed as metabolic turnover number at 10 uM after 15 mins by LC-MS/UV analysis
Type: ADME, microsome
test settings: read-out: Stability
Below, each entry is listed with its recorded microsomal CLint at 10 µM.
Field: numeric (µL/min/mg). Do not append units.

Sample answers from the record:
>>> quantitative_result("O=C(NC[C@@H](Cc1ccccc1)N1CCC(O)(C(F)(F)F)CC1)C1(c2ccc(Cl)cc2)CCCC1")
246
>>> quantitative_result("O=C(NCC(Cc1ccc(F)cc1)N1CCC(O)C1)C1(c2ccc(F)cc2)CCCC1 (racemic)")
170
>>> quantitative_result("O=C(NCC(Cc1ccccc1)N1CCN(c2ccccn2)CC1)C1(c2ccc(Cl)cc2)CCCC1 (racemic)")
312

Report microsomal CLint at 10 µM for O=C1CCC2(CCN(C(CNC(=O)C3(c4ccc(F)cc4)CC3)Cc3ccc(F)cc3)CC2)N1 (racemic) please.
168

* * *

Below, each entry is listed with its recorded log10 of IC50.
tested on: Transient receptor potential cation channel subfamily A member 1 (Homo sapiens, UniProt O75762)
Sequence (O75762 whole entry): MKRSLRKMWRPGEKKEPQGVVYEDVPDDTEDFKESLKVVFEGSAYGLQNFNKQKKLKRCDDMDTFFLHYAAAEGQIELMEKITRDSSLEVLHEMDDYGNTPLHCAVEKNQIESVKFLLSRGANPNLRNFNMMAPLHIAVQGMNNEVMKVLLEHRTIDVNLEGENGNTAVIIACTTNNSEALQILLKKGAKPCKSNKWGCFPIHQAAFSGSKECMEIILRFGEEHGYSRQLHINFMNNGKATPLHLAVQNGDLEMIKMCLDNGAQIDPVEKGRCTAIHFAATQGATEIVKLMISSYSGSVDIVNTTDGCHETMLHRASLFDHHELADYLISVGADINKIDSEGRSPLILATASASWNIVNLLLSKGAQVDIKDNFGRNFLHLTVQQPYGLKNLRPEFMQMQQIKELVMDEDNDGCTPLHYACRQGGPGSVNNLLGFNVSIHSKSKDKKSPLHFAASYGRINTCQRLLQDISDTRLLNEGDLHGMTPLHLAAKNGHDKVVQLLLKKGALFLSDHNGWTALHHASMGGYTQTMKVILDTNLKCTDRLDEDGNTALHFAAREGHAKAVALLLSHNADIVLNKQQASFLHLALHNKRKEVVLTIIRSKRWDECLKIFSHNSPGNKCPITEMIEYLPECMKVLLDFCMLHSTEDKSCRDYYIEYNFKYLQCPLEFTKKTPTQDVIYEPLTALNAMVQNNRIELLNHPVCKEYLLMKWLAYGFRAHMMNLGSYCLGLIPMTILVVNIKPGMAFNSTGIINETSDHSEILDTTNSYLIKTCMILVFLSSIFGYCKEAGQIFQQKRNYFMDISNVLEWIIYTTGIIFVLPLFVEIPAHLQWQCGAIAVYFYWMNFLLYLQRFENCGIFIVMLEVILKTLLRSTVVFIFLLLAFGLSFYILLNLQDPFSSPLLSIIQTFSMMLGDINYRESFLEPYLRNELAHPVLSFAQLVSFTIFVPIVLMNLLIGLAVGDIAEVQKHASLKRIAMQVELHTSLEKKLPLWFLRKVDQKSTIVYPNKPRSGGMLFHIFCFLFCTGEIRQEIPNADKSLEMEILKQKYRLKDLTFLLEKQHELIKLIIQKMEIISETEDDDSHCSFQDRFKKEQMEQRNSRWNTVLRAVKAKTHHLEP
experimental details: Antagonist activity at full length human TRPA1 at holding potential of 15 mV measured after 1 min by PatchXpress electrophysiology assay
In our notation, the value equals log10 of IC50 in nM.

>>> quantitative_result("O[C@]12CCCC[C@@H]1CCC[C@H]2Nc1ccc(F)cc1")
1.00
>>> quantitative_result("O=C(NCC(Cc1ccccc1)N1CCC(O)(C(F)(F)F)CC1)c1cc(C(F)(F)F)ccn1 (racemic)")
1.92
>>> quantitative_result("O=C(NCC(Cc1ccccc1)N1CCC(O)(C(F)(F)F)CC1)C1(c2ccc(Cl)cc2)CCCC1 (racemic)")
1.23
>>> quantitative_result("O=C(NCC(Cc1ccc(F)cc1)N1CCC(C(F)(F)F)C1)C1(c2ccc(F)cc2)CCCC1 (racemic)")
3.16
>>> quantitative_result("O=C(NC[C@H](Cc1ccccc1)N1CCC(O)(C(F)(F)F)CC1)C1(c2ccc(Cl)cc2)CCCC1")
3.28

Report log10 of IC50 for CC(C)(C(=O)NCC(Cc1ccccc1)N1CCC(O)(C(F)(F)F)CC1)C(F)(F)F (racemic) please.
1.96

Repeat for the following compound: CC(C)(C)[C@H]1CC[C@H](C(=O)NCC(Cc2ccccc2)N2CCC(O)(C(F)(F)F)CC2)CC1 (mixture of isomers)
2.00

Repeat for the following compound: O=C(NCC(Cc1ccccc1)N1CCC(O)(C(F)(F)F)C1)C1(c2ccc(F)cc2)CCC1 (racemic)
2.49

Repeat for the following compound: O=C(NCC(Cc1ccccc1)N1CCC(O)(C(F)(F)F)CC1)C1(c2ccc(Cl)cc2)CC1 (racemic)
1.86

Repeat for the following compound: O=C(NCC(Cc1ccc(F)cc1)N1C2CCC1CC(O)(C(F)(F)F)C2)C1(c2ccc(F)cc2)CCCC1 (racemic)
2.92

Repeat for the following compound: O=C(NC[C@H](Cc1ccccc1)N1CCC(O)(C(F)(F)F)CC1)C1(c2ccc(Cl)cc2)CC1
2.68

Repeat for the following compound: O=C(NCC(CC1CCOCC1)N1CCC(O)(C(F)(F)F)CC1)C1(c2ccc(Cl)cc2)CCCC1 (racemic)
3.28

Repeat for the following compound: O=C(NCC(Cc1ccccc1)N1CCC(C(F)(F)F)CC1)C1(c2ccc(F)cc2)CCCC1 (racemic)
2.83

* * *

experimental details: Fraction unbound in human plasma
Assay type: ADME, cell-free
outcome measure: fraction unbound

Report fraction unbound for O=C(NC[C@@H](Cc1ccccc1)N1CCC(O)(C(F)(F)F)CC1)C1(c2ccc(Cl)cc2)CCCC1 please.
0.0011

* * *

Below, each entry is listed with its recorded microsomal CLint at 10 µM.
experimental details: Stability in human liver microsomes assessed as metabolic turnover number at 10 uM after 15 mins by LC-MS/UV analysis
Format: ADME, microsome
test settings: read-out: Stability

Report microsomal CLint at 10 µM for O=C(NCC(Cc1ccccc1)N1CCC(O)(C(F)(F)F)CC1)C1(C(F)(F)F)CC1 (racemic) please.
149 µL/min/mg

Repeat for the following compound: O=C(NCC(Cc1ccccc1)N1CCC(O)(C(F)(F)F)CC1)C1(c2ccc(Cl)cc2)CC1 (racemic)
> 320 µL/min/mg

Repeat for the following compound: O=C(NC[C@H](Cc1ccccc1)N1CCC(O)(C(F)(F)F)CC1)C1(c2ccc(Cl)cc2)CC1
> 320 µL/min/mg

* * *

experimental details: Passive permeability of the compound in RRCK cells
Assay type: ADME, cell-based, Canis lupus familiaris, MDCKII-LE
test settings: dog, MDCK; read-out: permeability
Label Condition met when Papp is strictly below 4 ×10⁻⁶ cm/s; otherwise label Condition not met.

>>> cat("CC(C)(C(=O)NCC(Cc1ccccc1)N1CCC(O)(C(F)(F)F)CC1)C(F)(F)F (racemic)")
"Condition not met"
>>> cat("CN1CCC(CC(CNC(=O)C2(c3ccc(Cl)cc3)CCCC2)N2CCC(O)(C(F)(F)F)CC2)CC1 (racemic)")
"Condition met"
>>> cat("O=C(NCC(Cc1ccccc1)N1CCC(C(F)(F)F)CC1)C1(c2ccc(F)cc2)CCCC1 (racemic)")
"Condition not met"
>>> cat("O=C(NCC(Cc1ccccc1)N1CCC(O)(C(F)(F)F)CC1)C1(c2ccc(Cl)cc2)CCCC1 (racemic)")
"Condition met"
>>> cat("O=C(NC[C@@H](Cc1ccccc1)N1CCC(O)(C(F)(F)F)CC1)C1(c2ccc(Cl)cc2)CCCC1")
"Condition met"
>>> cat("O=C(NCC(Cc1ccccc1)N1CCC(O)(C(F)(F)F)CC1)c1cc(C(F)(F)F)ccn1 (racemic)")
"Condition not met"
>>> cat("O=C(NC[C@H](Cc1ccccc1)N1CCC(O)(C(F)(F)F)CC1)C1(c2ccc(Cl)cc2)CCCC1")
"Condition met"
>>> cat("O=C(NCC(Cc1ccccc1)N1CCC(O)(C(F)(F)F)CC1)C1(c2ccc(Cl)cc2)CC1 (racemic)")
"Condition met"
>>> cat("O=C(NCC(CC1CCOCC1)N1CCC(O)(C(F)(F)F)CC1)C1(c2ccc(Cl)cc2)CCCC1 (racemic)")
"Condition met"
>>> cat("CN1CCN(C(CNC(=O)C2(c3ccc(Cl)cc3)CCCC2)Cc2ccccc2)CC1 (racemic)")
"Condition met"

Please determine if CC(C)C(CNC(=O)C1(c2ccc(Cl)cc2)CCCC1)N1CCC(O)(C(F)(F)F)CC1 (racemic) is below 4 ×10⁻⁶ cm/s in terms of Papp.
Condition met

Repeat for the following molecule: O=C(NCC(Cc1ccccc1)N1CCN(c2ccccn2)CC1)C1(c2ccc(Cl)cc2)CCCC1 (racemic)
Condition met

Repeat for the following molecule: O=C(NCC(Cc1ccc(F)cc1)N1CCC2(C1)CC2(F)F)C1(c2ccc(F)cc2)CCCC1 (racemic)
Condition met

* * *

tested on: Cytochrome P450 2C19 (Homo sapiens)
Sequence (P33261 whole entry): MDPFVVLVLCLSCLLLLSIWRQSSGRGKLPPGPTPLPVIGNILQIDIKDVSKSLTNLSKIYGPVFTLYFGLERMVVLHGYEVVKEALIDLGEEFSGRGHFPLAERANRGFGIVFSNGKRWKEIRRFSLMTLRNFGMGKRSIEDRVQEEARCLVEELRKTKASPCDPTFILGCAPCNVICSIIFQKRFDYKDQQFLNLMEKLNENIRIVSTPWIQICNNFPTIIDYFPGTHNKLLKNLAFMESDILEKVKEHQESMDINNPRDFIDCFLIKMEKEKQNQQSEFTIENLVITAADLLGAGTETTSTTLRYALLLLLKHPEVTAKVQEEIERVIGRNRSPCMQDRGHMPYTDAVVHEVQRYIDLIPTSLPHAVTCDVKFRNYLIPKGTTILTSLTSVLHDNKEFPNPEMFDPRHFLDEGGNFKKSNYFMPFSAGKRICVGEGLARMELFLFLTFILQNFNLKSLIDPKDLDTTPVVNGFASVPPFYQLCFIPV
outcome measure: pIC50
Entry type: numeric. Quantity: pIC50, the -log10 of concentration in molar units.

Report pIC50 for O=C(NC[C@@H](Cc1ccccc1)N1CCC(O)(C(F)(F)F)CC1)C1(c2ccc(Cl)cc2)CCCC1 please.
5.50

* * *

experimental details: Stability in human liver microsomes assessed as metabolic turnover number at 10 uM after 15 mins by LC-MS/UV analysis
Type: ADME, microsome
test settings: read-out: Stability
Below, each entry is listed with its recorded microsomal CLint at 10 µM.

Sample answers from the record:
>>> result("O=C(NCC(Cc1ccc(F)cc1)N1CC2CCC1C2)C1(c2ccc(F)cc2)CC1 (racemic)")
"> 320 µL/min/mg"
>>> result("O=C(NCC(CC1CCOCC1)N1CCC(O)(C(F)(F)F)CC1)C1(c2ccc(Cl)cc2)CCCC1 (racemic)")
"> 320 µL/min/mg"
>>> result("CN(CC(Cc1ccccc1)N1CCC(O)(C(F)(F)F)CC1)C(=O)C1(c2ccc(Cl)cc2)CCCC1 (racemic)")
"> 320 µL/min/mg"

Report microsomal CLint at 10 µM for O=C(NC[C@H](Cc1ccccc1)N1CCC(O)(C(F)(F)F)CC1)C1(c2ccc(Cl)cc2)CCCC1 please.
> 320 µL/min/mg
